test system: Methicillin-resistant S. aureus COL; assay: In vitro infectivity assay (MIC), Exp. Ex. 2-1; type: cell-based, Staphylococcus aureus; details: Staphylococcus aureus, MRSA; Gram-positive; microdilution, MIC after 24 h

{"COMPOUND": "Cc1ccc(CC(=O)OC[C@H]2O[C@@H](Oc3c(-c4ccc(O)c(O)c4)oc4cc(O)cc(O)c4c3=O)[C@H](OC(=O)Cc3ccc(C)cc3)[C@@H](O)[C@H]2O)cc1 [Compound 14d]", "STUDY TARGET": "Methicillin-resistant S. aureus COL", "MIC (µg/mL)": 16}
{"COMPOUND": "Cc1ccc(CCC(=O)OCC2OC(Oc3c(-c4ccc(O)c(O)c4)oc4cc(O)cc(O)c4c3=O)C(OC(=O)CCc3ccc(C)cc3)C(O)C2O)cc1 (centres unmarked) [Compound 14l]", "STUDY TARGET": "Methicillin-resistant S. aureus COL", "MIC (µg/mL)": 32}
{"COMPOUND": "CCn1cc(C(=O)O)c(=O)c2cc(F)c(N3CCNCC3)cc21 [Norfloxacin, norfloxacin, reference compound]", "STUDY TARGET": "Methicillin-resistant S. aureus COL", "MIC (µg/mL)": 1}
{"COMPOUND": "CCCc1ccc(C(=O)OC[C@H]2O[C@@H](Oc3c(-c4ccc(O)c(O)c4)oc4cc(O)cc(O)c4c3=O)[C@H](OC(=O)c3ccc(CCC)cc3)[C@@H](O)[C@H]2O)cc1 [Compound 14b]", "STUDY TARGET": "Methicillin-resistant S. aureus COL", "MIC (µg/mL)": 16}
{"COMPOUND": "CCOc1ccc(C(=O)OC[C@H]2O[C@@H](Oc3c(-c4ccc(O)c(O)c4)oc4cc(O)cc(O)c4c3=O)[C@H](OC(=O)c3ccc(OCC)cc3)[C@@H](O)[C@H]2O)cc1 [Compound 14a]", "STUDY TARGET": "Methicillin-resistant S. aureus COL", "MIC (µg/mL)": 16}
